Target: Human C1 Esterase (Homo sapiens, UniProt P09871)
Sequence (P09871 16-688): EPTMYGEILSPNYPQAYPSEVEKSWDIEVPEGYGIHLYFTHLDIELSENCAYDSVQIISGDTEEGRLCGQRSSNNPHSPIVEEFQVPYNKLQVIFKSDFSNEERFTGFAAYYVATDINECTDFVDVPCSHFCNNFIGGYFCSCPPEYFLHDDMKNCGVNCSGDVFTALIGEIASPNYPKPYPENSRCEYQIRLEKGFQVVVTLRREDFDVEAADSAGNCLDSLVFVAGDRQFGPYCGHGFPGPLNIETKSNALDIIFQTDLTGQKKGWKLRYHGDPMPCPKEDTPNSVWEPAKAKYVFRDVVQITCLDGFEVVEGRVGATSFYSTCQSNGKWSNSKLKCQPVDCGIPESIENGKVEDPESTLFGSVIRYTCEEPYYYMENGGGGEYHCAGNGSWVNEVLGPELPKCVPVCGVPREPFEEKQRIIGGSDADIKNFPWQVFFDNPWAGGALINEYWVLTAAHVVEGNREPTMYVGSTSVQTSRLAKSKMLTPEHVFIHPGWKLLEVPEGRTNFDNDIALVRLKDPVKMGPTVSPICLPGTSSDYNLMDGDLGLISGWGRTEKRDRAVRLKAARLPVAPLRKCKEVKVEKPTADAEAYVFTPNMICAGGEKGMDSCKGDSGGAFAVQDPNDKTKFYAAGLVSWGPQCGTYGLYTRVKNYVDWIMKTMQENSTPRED
Assay: Selectivity assay: Human C1 Esterase
Format: biochemical
Settings: IC50 of 5 or greater is considered inactive
EXPERIMENTAL_READOUT: IC50

For reference, reported IC50 for CC(C)C(NC(=O)CN(C(=O)[C@@H](NC(=O)c1ccc(C(=O)NS(=O)(=O)c2ccc(Cl)cc2)cc1)C(C)C)C1Cc2ccccc2C1)C(=O)C(F)(F)F (stereo partly shown) stands at > 6.55 µM

###

Target: UniProtKB P03300
Sequence (P03300 1566-1748 limits assumed): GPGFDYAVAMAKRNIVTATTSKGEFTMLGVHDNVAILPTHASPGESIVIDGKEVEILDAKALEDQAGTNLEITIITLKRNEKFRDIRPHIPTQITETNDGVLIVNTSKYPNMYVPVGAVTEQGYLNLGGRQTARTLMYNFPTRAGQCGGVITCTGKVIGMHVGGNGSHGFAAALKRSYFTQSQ
pIC50: −log10 of the molar value.
EXPERIMENTAL_READOUT: pIC50

// compound CC(C)C(NC(=O)CN(C(=O)[C@@H](NC(=O)c1ccc(C(=O)NS(=O)(=O)c2ccc(Cl)cc2)cc1)C(C)C)C1Cc2ccccc2C1)C(=O)C(F)(F)F (stereo partly shown) , assay UniProtKB P03300, pIC50 value: < 4.08

###

Target: Human Cathepsin B (Homo sapiens)
Assay: Selectivity assay: Human Cathepsin B
Conditions: IC50 of 5 or greater is considered inactive
pIC50: −log10 of the molar value.
EXPERIMENTAL_READOUT: pIC50

Field pIC50 (entry CC(C)C(NC(=O)CN(C(=O)[C@@H](NC(=O)c1ccc(C(=O)NS(=O)(=O)c2ccc(Cl)cc2)cc1)C(C)C)C1Cc2ccccc2C1)C(=O)C(F)(F)F (stereo partly shown) ) reads < 5.18

###

Entries and their measured inhibition at 5 µg/mL follow.
Biological target: Human sputum elastase ( HSE ) (Homo sapiens)
Construct: Human sputum elastase ( HSE ) (Elasten Products Co., Pacific, Mo.); purchased Elasten Products Co., Pacific, Mo; host or cells: human sputum (by the name of the product)
Sequence (P08246 30-267): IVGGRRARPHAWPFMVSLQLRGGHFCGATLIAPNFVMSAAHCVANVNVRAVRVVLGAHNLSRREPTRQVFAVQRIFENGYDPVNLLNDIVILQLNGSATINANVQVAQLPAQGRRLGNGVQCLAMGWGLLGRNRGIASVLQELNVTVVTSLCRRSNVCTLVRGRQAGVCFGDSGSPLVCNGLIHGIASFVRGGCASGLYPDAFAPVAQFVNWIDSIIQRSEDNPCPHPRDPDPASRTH
Test: Elastase Inhibition - In Vitro Method (hydrolysis of MeO-Suc-Ala-Ala-Pro-Val-pNA, microtiter format)
Assay type: biochemical
Settings: 5ug/mL compound, 0 % HSA; read-out: % Inhib. (5ug/mL) 0 % HSA
From the text: The in vitro assay is based upon the hydrolysis of the commercially available (Sigma Chemical Company, St. Louis, Missouri) substrate methoxy O-succinyl-L-alanyl-L-alanyl-L-prolyl-L-valine para-nitroanilide (MeO-Suc-Ala-Sla-Pro-Val-pNA) and the resulting release of p-nitroanilide (pNA), which absorbs at 405 nm. • a. Microtiter plates (96 well, flat bottom) • b. Vmax Kinetic Microtiter Plate Reader, equipped with 405 nm filter (Molecular Devices) • c. Microtiter Plate Mixer (Fisher Scientific) • d. […]
Give a bare numeral; the unit % is implied.

Some molecules with recorded inhibition at 5 µg/mL:
>>> readout_value("COc1ccc(CCN(CC(=O)NC(C(=O)C(F)(F)F)C(C)C)C(=O)[C@@H](NC(=O)OCc2ccccc2)C(C)C)cc1OC (stereo partly drawn)")
95.1
>>> readout_value("CC(C)C(NC(=O)CN(C(=O)[C@@H](NC(=O)c1ccc(C(=O)NS(=O)(=O)c2ccc(Cl)cc2)cc1)C(C)C)C1CC2CCC1C2)C(=O)C(F)(F)F (stereo partly drawn)")
99.8

Notebook: CC(C)C(NC(=O)CN(C(=O)[C@@H](NC(=O)c1ccc(C(=O)NS(=O)(=O)c2ccc(Cl)cc2)cc1)C(C)C)C1CCCC1)C(=O)C(F)(F)F (single isomer, unassigned) , inhibition at 5 µg/mL read as 100

inhibition at 5 µg/mL for COc1ccc(CCN(CC(=O)NC(C(=O)C(F)(F)F)C(C)C)C(=O)[C@@H](NC(=O)c2ccc(C(=O)NS(=O)(=O)c3ccc(Cl)cc3)cc2)C(C)C)cc1OC (stereo partly drawn) is 98.8

CC(C)C(NC(=O)CN(C(=O)[C@@H](NC(=O)c1ccc(C(=O)NS(=O)(=O)c2ccc(Cl)cc2)cc1)C(C)C)C1CCCC1)C(=O)C(F)(F)F (single isomer, unassigned) [Cyclopentyl, p-[p-Cl(C6H4)SO2NHCO](C6H4)CO - (Diastereomer of Above)] has a reported inhibition at 5 µg/mL of 99.8

Measured inhibition at 5 µg/mL of CC(C)C(NC(=O)CN(C(=O)[C@@H](NC(=O)OCc1ccccc1)C(C)C)C1CCCC1)C(=O)C(F)(F)F (stereo partly drawn) : 100
